Where these numbers come from: a melting point compilation (Tetko et al.; mined from patent text by program, amines drawn as free bases though some values may be those of a salt)

RECORDED ENDPOINT: melting point

Below: 4 compounds and their reported melting point.
- COMPOUND: "Cc1c(Cl)cccc1S(=O)(=O)Nc1ccc2nc(C)n(CCO)c2c1"
  melting point: "213 to 214 °C"
- COMPOUND: "COc1ccc(C2(O)c3ccccc3C(=O)N2CCc2cccc(OC)c2)cc1 (stereo not drawn)"
  melting point: "119 °C"
- COMPOUND: "C1=CCC2=C(C1)CC1=C(CC=CC1)C2"
  melting point: "146 to 147 °C"
- COMPOUND: "COc1ccc(C(=O)Nc2ccccc2)cc1NC(=O)C(O)c1ccccc1 (stereo not drawn)"
  melting point: "173 to 175 °C"

Record request: melting point value, item `CSc1nsc(NC(=O)Oc2ccccc2)c1C#N`
244 to 245 °C

Record request: melting point value, item CC(Br)C(=O)c1ccc(CN2C(=O)c3ccccc3C2=O)s1 (stereo not drawn)
127 to 130 °C

====

Measured melting point, listed per entry.

Below: 3 molecules and their reported melting point.
- MOLECULE: "Cc1cc(Br)cc(C(=O)Nc2ccc(F)c(C)n2)n1"
  OBSERVED RESULT: "182 °C"
- MOLECULE: "Cc1nc(N2CCN(Cc3ccc(F)cc3)C2=O)sc1C(=O)NCc1ccncc1"
  OBSERVED RESULT: "146 to 149 °C"
- MOLECULE: "Cn1ccc2ccc(N3Cc4c(cccc4[N+](=O)[O-])C3=O)cc21"
  OBSERVED RESULT: "225 to 262 °C"

Record request: melting point value, item `CCOC(=O)C(=CNC1CC1)C(=O)c1c(F)c(F)c(F)c(F)c1F`
85 to 86 °C

Record request: melting point value, item `N#Cc1ccccc1-c1cc(-c2cnc3nc(C(F)(F)F)cnn23)ccc1F`
168 to 174 °C

Record request: melting point value, item `C=C(C)COc1cc(OC)cc(C(=O)OC)c1`
159 to 161 °C

Record request: melting point value, item `CC(C)(C)C(=O)Oc1ccc(CCNC(=O)c2cccnc2)cc1`
80 to 82 °C

====

Measured melting point, listed per entry.

Below: 3 molecules and their reported melting point.
- MOLECULE: "Clc1sc(Cl)c2c1CNC2"
  melting point: "> 270 °C"
- MOLECULE: "O=C(Nc1cccnc1)C(Cl)(Cl)Cl"
  melting point: "149 to 151 °C"
- MOLECULE: "CCOc1cc2nc(NC)nc(-c3cccc(Br)c3)c2cc1OCC"
  melting point: "130 to 132 °C"

Record request: melting point value, item O=C(O)C(O)c1ccc(-c2ccc(Cl)cc2)s1 (centres undefined)
158 to 160 °C

====

RECORDED ENDPOINT: melting point

Below: 10 compounds and their reported melting point.
- COMPOUND: "Cc1ccccc1C=CCC(C(=O)C=Cc1ccc(Cl)cc1)c1ccccc1 (stereo not drawn)"
  melting point: "60 to 76 °C"
- COMPOUND: "C=C[C@H](Cc1ccccc1)NC(=O)OCc1ccccc1"
  melting point: "87 to 88 °C"
- COMPOUND: "CCc1nc2c(cnn2CC)c(NC2CCOCC2)c1CNC(=O)c1cccc(C(=O)NCc2ccc(OC)c(-c3cccc(CN4CCNCC4)c3)c2)c1"
  melting point: "138 to 140 °C"
- COMPOUND: "Cc1scc2c1N(C(=O)Cl)c1ccccc1NC2=O"
  melting point: "238 to 239 °C"
- COMPOUND: "CN(C)CCOC1=C(c2ccccc2)CN(Cc2ccco2)C1=O"
  melting point: "145 to 148 °C"
- COMPOUND: "COC(CNC(=O)N(N=Cc1ccccc1)c1cc(Cl)c(C(C#N)c2ccc(Cl)cc2)c(Cl)c1)OC (stereo not drawn)"
  melting point: "190 to 191 °C"
- COMPOUND: "Nc1sc(CC(O)CO)cc1C(=O)c1ccccc1Cl (stereo not drawn)"
  melting point: "136 to 137 °C"
- COMPOUND: "C=C(c1ccc(C(=O)OC)cc1)c1cc2c(cc1C)C(C)(C)CCC2(C)C"
  melting point: "167 to 168 °C"
- COMPOUND: "CCCCSc1nnc(N(C)C(=O)NC)s1"
  melting point: "135 to 137 °C"
- COMPOUND: "COc1cc(CCN2CCC[C@H](C(C#N)(c3ccccc3)c3ccccc3)C2)ccc1O"
  melting point: "159 to 160 °C"

Record request: melting point value, item `CCOC(=O)Cc1c(C(F)(F)F)c2ccc(O)cc2oc1=O`
112 to 114 °C

Record request: melting point value, item CC(C)(C)c1ccccc1N1CCN(C(=O)C2CCC(=O)N2Cc2ccccc2)CC1 (stereo not drawn)
164 °C

Record request: melting point value, item COCC1CCCN1S(=O)(=O)c1ccc2c(c1)C1(OCCCO1)C(=O)N2 (stereo not drawn)
127 to 128 °C
